Numbers sourced from PubChem BioAssay (EPA / NIEHS).

Assay: CEETOX_H295R_OHPREG: CeeTox H295R High-throughput Steroidogenesis Assay for OH-Pregnenolone (OHPREG) (AID 2283434)
Measurement setup: actives raise or lower the signal
Experimental: CEETOX_H295R is a cell-based, multiplexed-readout assay that uses H295R, a human adrenal gland cell line, with measurements taken at 48 hours after chemical dosing in a 96-well plate.CEETOX_H295R_OHPREG is one of 23 assay component(s) measured or calculated from the CEETOX_H295R assay. […] This assay endpoint, CEETOX_H295R_OHPREG, was analyzed with bidirectional fitting relative to DMSO as the negative control and baseline of activity. […]
Activity calls are given as the source filed them. How the source made its calls: active means hit-call score of the fitted dose curve at least 0.9, where 1 is the maximum; inactive means score below 0.9.
Reported endpoint: AC50

Solved cases (8 shown):
N#Cc1c(Cl)cccc1Cl	inactive
O=C(Nc1ccccc1-c1ccc(Cl)cc1)c1cccnc1Cl	inactive
CC(C)(C)C(=O)C(Oc1ccc(Cl)cc1)n1cncn1 (stereo not given)	21.6 µM (active)
CC(C)Nc1nc(Cl)nc(NC(C)C)n1	inactive
CCN(CC)C(=O)C(C)Oc1cccc2ccccc12 (stereo not given)	inactive
CCCCC(C#N)(Cn1cncn1)c1ccc(Cl)cc1 (stereo not given)	7.87 µM (active)
Cc1nc(N(C)C)nc(OC(=O)N(C)C)c1C	inactive
CCSC(=O)N1CCCCCC1	inactive

Would you mind listing AC50 for each of the following molecules?
1. CC1(C)CCC(=Cc2ccc(Cl)cc2)C1(O)Cn1cncn1 (stereo not given)
2. COCc1cnc(C2=NC(C)(C(C)C)C(=O)N2)c(C(=O)O)c1 (stereo not given)

Solution:
1: inactive; 2: inactive

----------
Read-out: organic anion transporter (SLCO1B1), SLCO1B1 (gene 10599)
Assay: CLD_SLCO1B1_48hr: CellzDirect (CLD) Gene Expression Assay for organic anion transporter (SLCO1B1) at 48 hours (AID 2283707)
Results filed as inconclusive are left out. The source made the active and inactive calls. The calls were made as follows: active = hit-call score of the fitted dose curve at least 0.9, where 1 is the maximum; inconclusive = response in the unintended direction; inactive = score below 0.9.
Reported endpoint: outcome

Solved cases (5 shown):
Nc1c(Cl)c(Cl)nc(C(=O)O)c1Cl	inactive
Nc1cnn(-c2ccccc2)c(=O)c1Cl	inactive
O=C1C2CC=CCC2C(=O)N1SC(Cl)(Cl)Cl (stereo not drawn)	inactive
COc1cc(Cl)c(OC)cc1Cl	inactive
COP(=S)(OC)SCn1nnc2ccccc2c1=O	inactive

Would you mind listing outcome for each of the following compounds?
1. CS(=O)(=O)c1cc(C(F)(F)F)ccc1C(=O)c1cnoc1C1CC1
2. Nc1c(Cl)c(F)nc(OCC(=O)O)c1Cl
3. CCOc1cc(C(C)(C)C)ccc1C1COC(c2c(F)cccc2F)=N1 (stereo not drawn)

Solution:
inactive
inactive
inactive

Would you mind listing outcome for each of the following compounds?
1. O=C(O)c1c(Cl)ccc2cc(Cl)cnc12
2. Clc1cccc(C(Cl)(Cl)Cl)n1
3. CCN(CC)C(=O)C(C)Oc1cccc2ccccc12 (stereo not drawn)
4. CO/N=C(/C1=NOCCO1)c1ccccc1Oc1ncnc(Oc2ccccc2Cl)c1F

Solution:
inactive
inactive
inactive
inactive

Problem: Value lookup for outcome; key = CNC(=O)N(C)c1nnc(C(C)(C)C)s1
Solution: inactive

----------
Assay: CCTE_Shafer_MEA_dev_per_burst_interspike_interval: CCTE's Neural Network Formation Assay for Burst Interspike Interval, Shafer Lab (AID 2284044);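 further: mean spike spacing inside bursts as AUC over recordings on days 5 7 9 12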
The source made the active and inactive calls. Rule for the calls: active = hit-call score of the fitted dose curve at least 0.9, where 1 is the maximum; inactive = score below 0.9.
Answer with one of the outcomes yes (active), no (inactive)

Would you please look over these solved cases?
CN/C(=N\[N+](=O)[O-])NCc1cnc(Cl)s1	no
C=C(C)CN(CC)c1c([N+](=O)[O-])cc(C(F)(F)F)cc1[N+](=O)[O-]	yes
CC1(C)C(C=C(Cl)Cl)C1C(=O)OC(C#N)c1cccc(Oc2ccccc2)c1 (stereo unspecified)	no
CC1(C)C(C(=O)OC(C#N)c2cccc(Oc3ccccc3)c2)C1(C)C (stereo unspecified)	yes
CCCN(CC)CC1COC2(CCC(C(C)(C)C)CC2)O1 (stereo unspecified)	yes

# ---- query compound ----
Problem: Short answer needed: outcome of this test for CCNC(=O)NC(=O)C(C#N)=NOC ?
Solution: no
